Target: IRAK4 (Homo sapiens, UniProt Q9NWZ3)
Construct: Effect of the Compounds on IRAK4 Protein Degradation in THP1 Cells; endogenous in cells; host or cells: THP-1 cells
Sequence (Q9NWZ3 whole entry): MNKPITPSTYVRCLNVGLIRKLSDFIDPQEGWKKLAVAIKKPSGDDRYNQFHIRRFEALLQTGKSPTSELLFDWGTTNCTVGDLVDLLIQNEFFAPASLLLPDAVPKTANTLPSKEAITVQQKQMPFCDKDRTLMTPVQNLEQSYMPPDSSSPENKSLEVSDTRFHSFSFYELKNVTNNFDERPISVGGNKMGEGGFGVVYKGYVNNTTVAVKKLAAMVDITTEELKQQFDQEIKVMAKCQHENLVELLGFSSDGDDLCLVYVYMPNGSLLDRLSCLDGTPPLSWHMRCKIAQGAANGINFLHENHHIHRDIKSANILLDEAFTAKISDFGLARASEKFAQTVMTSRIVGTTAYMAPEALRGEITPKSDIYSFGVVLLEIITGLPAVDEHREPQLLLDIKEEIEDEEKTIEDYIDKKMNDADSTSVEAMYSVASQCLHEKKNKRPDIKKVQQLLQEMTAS
Test: IRAK4 protein degradation in THP1 cells (Western blot)
Format: cell-based
Details: THP-1 cells, 24 h
// bucketize DC50: interval 1 = under 1 nM, interval 2 = from 1 nM up to 5 nM, interval 3 = 5 nM and over

>>> label("CN(C)c1cc2nn([C@H]3CC[C@H](CN4CC[C@@H](n5cc6cc(N7CCC(=O)NC7=O)c(F)cc6n5)[C@H](F)C4)CC3)cc2cc1NC(=O)c1cnn2cccnc12 [TM-41]")
"interval 1"
>>> label("CN(C)c1cc2nn([C@H]3CC[C@H](CN4C[C@@H](n5cc6cc(C7CCC(=O)NC7=O)c(F)cc6n5)[C@@H](F)C4)CC3)cc2cc1NC(=O)c1cnn2cccnc12 (stereo partly drawn) [TM-241]")
"interval 3"
>>> label("CN(C)c1cc2nn([C@H]3CC[C@H](CN4CC[C@@H](n5cc6ccc(N7CCC(=O)NC7=O)cc6n5)C4)CC3)cc2cc1NC(=O)c1cnn2cccnc12 [TM-198]")
"interval 1"
>>> label("CN(C)c1cc2nn(C3CCN(C[C@H]4CC[C@H](n5cc6ccc(C7CCC(=O)NC7=O)cc6n5)CC4)CC3)cc2cc1NC(=O)c1cnn2cccnc12 (stereo partly drawn) [TM-5]")
"interval 2"
>>> label("CN(C)c1cc2nn([C@H]3CC[C@H](CN4CCC(n5cc6cc(N7CCC(=O)NC7=O)c(F)cc6n5)CC4)CC3)cc2cc1NC(=O)c1cnn2cccnc12 [TM-9]")
"interval 3"
>>> label("CN(C)c1cc2nn([C@H]3CC[C@H](CN4CC[C@@H](n5cc6ccc(N7CCC(=O)NC7=O)cc6n5)[C@@H](F)C4)CC3)cc2cc1NC(=O)c1cnn2cccnc12 [TM-29]")
"interval 2"
>>> label("CN(C)c1cc2nn([C@H]3CC[C@H](CN4CC[C@H](F)[C@@H](n5cc6cc(N7CCC(=O)NC7=O)ccc6n5)C4)CC3)cc2cc1NC(=O)c1cnn2cccnc12 [TM-214]")
"interval 2"
>>> label("CN(C)c1cc2nn([C@H]3CC[C@H](CN4CC5(CCN(c6nc7ccc(N8CCC(=O)NC8=O)cc7s6)CC5)C4)CC3)cc2cc1NC(=O)c1cnn2cccnc12 [TM-67]")
"interval 3"
>>> label("CN(C)c1cc2nn([C@H]3CC[C@H](CN4CC[C@@H](n5cc6cc(C7CCC(=O)NC7=O)ccc6n5)[C@H](F)C4)CC3)cc2cc1NC(=O)c1cnn2cccnc12 (stereo partly drawn) [TM-167]")
"interval 2"
>>> label("O=C1CCN(c2ccc3cn(C4CCN(C[C@H]5CC[C@H](n6cc7cc(NC(=O)c8cnn9cccnc89)c(N8CCOCC8)cc7n6)CC5)CC4)nc3c2)C(=O)N1 [TM-43]")
"interval 2"
>>> label("CN(C)c1cc2nn([C@H]3CC[C@H](CN4CC[C@@H](n5cc6ccc(C7CCC(=O)NC7=O)cc6n5)[C@@H](F)C4)CC3)cc2cc1NC(=O)c1cnn2cccnc12 (stereo partly drawn) [TM-154]")
"interval 2"
>>> label("CN(C)c1cc2nn([C@H]3CC[C@H](CN4CCC(n5cc6cc(N7CCC(=O)NC7=O)ccc6n5)CC4)CC3)cc2cc1NC(=O)c1cnn2cccnc12 [TM-3]")
"interval 2"
>>> label("CN(C)c1cc2nn([C@H]3CC[C@H](CN4C[C@@H](F)[C@@H](n5cc6cc(C7CCC(=O)NC7=O)c(F)cc6n5)C4)CC3)cc2cc1NC(=O)c1cnn2cccnc12 (stereo partly drawn) [TM-240]")
"interval 2"
>>> label("CN(C)c1cc2nn(C3CCN(C[C@H]4CC[C@H](n5cc6cc(N7CCC(=O)NC7=O)c(F)cc6n5)CC4)CC3)cc2cc1NC(=O)c1cnn2cccnc12 [TM-51]")
"interval 3"
>>> label("CN(C)c1cc2nn([C@H]3CC[C@H](CN4C[C@@H](n5cc6ccc(N7CCC(=O)NC7=O)cc6n5)[C@@H](F)C4)CC3)cc2cc1NC(=O)c1cnn2cccnc12 [TM-199]")
"interval 1"

Data origin, for the record: patent US20260216348A1
